# Target Desc: Short transient receptor potential channel 4 (Mus musculus)
# Procedure Details: blockers of DAMGO-evoked TRPC4 calcium flux – cell-based, second round, Fluo4, HEK293 TRPC4beta/mu-opioid, 1 µM, confirmation (AID 2637)
# Stated Conditions: at 1 µM
Activity calls are given as the source filed them.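 Rule for the calls: active = calcium signal ratio cut to more than 3 SD under the fully stimulated control mean yet still positive, in both repeats and the primary screen; inactive = the rest.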
Valid outcomes are listed here; reply with one: True for active, False for inactive

| Compound | Class |
| --- | --- |
| COc1ccc(CCNCC(O)COc2ccc(OC)cc2C(C)(C)C)cc1 (centres undefined) | False |
| COc1ccc(C(CNC(=O)c2cccc(NS(=O)(=O)c3ccc(Br)cc3)c2)N(C)C)cc1 (centres undefined) | False |
| Cc1ccc(S(=O)(=O)N2CCN(c3cc4c(cc3[N+](=O)[O-])n(C)c(=O)n4C)CC2)cc1 | False |
| CCOc1cc(/C=C(\C#N)C(=O)Nc2cccc(C(=O)O)c2)cc(Br)c1OC(=O)c1ccc(OC)cc1 | False |
| CC1CCCN(C2=C(NS(=O)(=O)c3ccc(Br)cc3)C(=O)c3ccccc3C2=O)C1 (centres undefined) | False |
| Cc1cc(C(=O)CN2C(=O)C(=O)N(CC(C)C)C2=O)c(C)n1-c1ccccc1F | False |
| CN(CC(=O)Nc1ccc(F)cc1)C(=O)COC(=O)c1ccccc1 | False |
| OCc1ccccc1CNCc1ccccc1 | True |

### Prompt Can you look up the reported call for Cc1ccc2cc(CN(CCN3CCOCC3)C(=O)NCc3ccccc3)c(=O)[nH]c2c1C for me?
### Response True

### Prompt Can you look up the reported call for O=C(CC1C(=O)NCCN1Cc1cccc(Oc2ccccc2)c1)NCCc1ccccn1 (centres undefined) for me?
### Response False

### Prompt Can you look up the reported call for O=C(c1ccccc1F)N1CCN(c2ccc([N+](=O)[O-])c3cccnc23)CC1 for me?
### Response False

### Prompt Can you look up the reported call for COc1ccc(-c2cc(C(F)(F)F)nc(N3CCN(C)CC3)n2)cc1 for me?
### Response False

* * *

# System: TRPC4 beta (transient receptor potential cation channel C4), mouse
# Procedure Details: TRPC4 cation channel opening, retest – cell-based, Fluo4 calcium, HEK293 TRPC4beta/mu-opioid, duplicates, 10 µM, confirmation (AID 2426)
# Stated Conditions: Fluo4 calcium fluorescence, at 10 µM
Active and inactive are the calls of the source.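 Rule for the calls: active = fluorescence ratio normalized to control raised more than 50% in primary screen plus both repeat runs; inactive = the rest.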
Valid outcomes are listed here; reply with one: TRUE for active, FALSE for inactive

| Compound | Class |
| --- | --- |
| CCN1CCN(c2ccc(S(=O)(=O)N3CCCCC3)cc2NC(=O)CC(C)c2ccccc2)CC1 (stereo not drawn) | TRUE |
| CC1=C(C(=O)NCc2ccccc2)C(c2cc(Br)cc(Br)c2OC(C)C)NC(=O)N1 (stereo not drawn) | FALSE |
| CCOc1ccccc1NC(=O)CN(c1ccc(OC)cc1)S(=O)(=O)c1c(C)[nH]c(=O)[nH]c1=O | FALSE |
| Cc1ccc2[nH]c(C)c(CCN(Cc3cccnc3)C(=S)NC(C)(C)C)c2c1 | FALSE |
| COc1ccc(-n2nc(C(=O)NCC(=O)NCCCN3CC(C)CC(C)C3)c3ccccc3c2=O)cc1Cl (stereo not drawn) | FALSE |
| CC(C)c1cccc(OCCCCN(C)C)c1 | FALSE |
| Cc1ccc(Cn2c(=N)c(C(=O)NC3CCCC3)cc3c(=O)n4ccccc4nc32)cc1 | TRUE |
| O=C(CN1CCN(c2ncc(C(F)(F)F)cc2Cl)CC1)N1CCN(c2ncc(C(F)(F)F)cc2Cl)CC1 | TRUE |
| Cc1cccc2cc(CN(Cc3nnnn3Cc3ccccc3)C3CCCC3)c(=O)[nH]c12 | FALSE |
| COc1ccc(Cl)c2sc(N(CCN(C)C)C(=O)c3ccc4c(c3)OCCO4)nc12 | FALSE |

### Prompt Can you look up the reported call for Cc1c(Cl)cccc1NC(=S)NCC(c1cccnc1)N(C)C (stereo not drawn) for me?
### Response FALSE

### Prompt Can you look up the reported call for CN(CCCNC(=O)CCCOc1cc(=O)n(C)c2ccccc12)Cc1ccccc1 for me?
### Response FALSE

### Prompt Can you look up the reported call for Cc1cc(-c2cn3ccccc3n2)c(C)n1-c1ccccc1 for me?
### Response FALSE
